# study_system: recombinant Human Phosphodiesterase B2 (PDE4B2) (Homo sapiens)
# Sequence (Q07343 1-564 isoform Q07343-2): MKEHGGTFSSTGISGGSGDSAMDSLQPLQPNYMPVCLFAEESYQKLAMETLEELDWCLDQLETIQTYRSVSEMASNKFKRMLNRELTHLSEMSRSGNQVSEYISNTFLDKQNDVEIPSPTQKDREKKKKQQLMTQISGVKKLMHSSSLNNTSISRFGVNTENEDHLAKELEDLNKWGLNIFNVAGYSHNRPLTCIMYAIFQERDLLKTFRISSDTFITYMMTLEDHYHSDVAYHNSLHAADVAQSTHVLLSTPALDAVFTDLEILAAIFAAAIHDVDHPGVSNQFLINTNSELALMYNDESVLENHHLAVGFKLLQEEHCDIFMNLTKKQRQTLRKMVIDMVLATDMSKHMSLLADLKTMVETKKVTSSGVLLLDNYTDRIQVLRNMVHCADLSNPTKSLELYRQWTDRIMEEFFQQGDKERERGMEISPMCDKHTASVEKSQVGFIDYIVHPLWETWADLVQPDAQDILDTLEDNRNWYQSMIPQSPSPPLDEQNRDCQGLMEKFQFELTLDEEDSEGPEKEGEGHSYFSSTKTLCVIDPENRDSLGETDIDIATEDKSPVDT
# test_summary: Human Phosphodiesterase B2 Radiometric Assay
# Type: biochemical
# settings: 0.1 μg/mL recombinant PDE4B2; preincubated at 30 C for 30 min; [3H]cyclic AMP 8 nM, stopped after 20 min; yttrium silicate SPA beads; read-out: PDE4B2 pIC50 (converted)
measurement_kind: IC50 (nM)

Guide cases for IC50, answers given:
C[C@@H]1CN(CCCc2cccc(-c3cccc(Oc4ncc(F)cc4C(=O)N[C@H]4CC[C@@H](NC(=O)c5cc6n(n5)CCCC6)CC4)c3)c2)C[C@H](C)N1 :: 0.1
C[C@@H]1CN(Cc2ccc(-c3cccc(Oc4ncc(F)cc4C(=O)N[C@H]4CC[C@@H](NC(=O)c5cc(C(F)(F)F)n(C)n5)CC4)c3)c(CN3CCSCC3)c2)C[C@H](C)N1 :: 0.02
Cc1cc(C(=O)N[C@H]2CC[C@@H](NC(=O)c3cc(F)cnc3Oc3cccc(-c4cccc(CCCN5CCN[C@@H](C)C5)c4)c3)CC2)nn1C :: 0.0794

(1) Cc1cccc2nc(C(=O)N[C@H]3CC[C@@H](NC(=O)c4cc(F)cnc4Oc4cccc(-c5ccc(O)cc5CN5CCCOCC5)c4)CC3)cn12
(2) Cc1ccc(O)c(CN[C@H]2CC[C@@H](NC(=O)c3cc(F)cnc3Oc3cccc(-c4ccc(O)cc4CN4CCOCC4)c3)CC2)c1
[Q] Form: Entry with minimum IC50 (choose one): 1 / 2 In your reply, give the label of the chosen option.
[A] 1
(1: 0.0316 nM, 2: 6.31 nM)

(1) Cc1cc(C(=O)N[C@H]2CC[C@@H](NC(=O)c3cc(F)cnc3Oc3cccc(-c4ccc(CCCN5CCNCC5)cc4)c3)CC2)nn1C
(2) Cc1cc(C(=O)N[C@H]2CC[C@@H](NC(=O)c3cc(F)cnc3Oc3cccc(-c4cccc(CN5C[C@@H](C)N[C@@H](C)C5)c4O)c3)CC2)nn1C
[Q] Among 1 and 2 , which shows a numerically higher IC50 result? In your reply, give the label of the chosen option.
[A] 2
(2: 0.0794 nM, 1: 0.0316 nM)

(I) C[C@@H]1CN(CCCc2ccc(-c3cccc(Oc4ncc(F)cc4C(=O)N[C@H]4CC[C@@H](NC(=O)c5cscn5)CC4)c3)cc2)C[C@H](C)N1
(II) C[C@@H]1CN(CCc2ccc(-c3cccc(Oc4ncc(F)cc4C(=O)N[C@H]4CC[C@@H](NC(=O)c5cnc6ccccc6n5)CC4)c3)cc2)C[C@H](C)N1
[Q] Among I and II , which shows a numerically higher IC50 result? In your reply, give the label of the chosen option.
[A] II

(I) CC(C)NC(=O)CN1CCN(Cc2ccc(-c3cccc(Oc4ncc(F)cc4C(=O)N[C@H]4CC[C@@H](NC(=O)c5cccc6[nH]cnc56)CC4)c3)c(CN3CCOCC3)c2)CC1
(II) Cc1cc(C(=O)N[C@H]2CC[C@@H](NC(=O)c3cc(F)cnc3Oc3cccc(-c4ccc(CN5CCSCC5)cc4CN4CCOCC4)c3)CC2)nn1C
[Q] Form: Entry with minimum IC50 (choose one): I / II In your reply, give the label of the chosen option.
[A] I

(I) Cc1cc(C(=O)N[C@H]2CC[C@@H](NC(=O)c3cc(F)cnc3Oc3cccc(-c4ccc(CCCN5C[C@@H](C)N[C@@H](C)C5)cc4)c3)CC2)nn1C
(II) Cc1nc(C(=O)N[C@H]2CC[C@@H](NC(=O)c3cc(F)cnc3Oc3cccc(-c4ccc(O)cc4CN4CCCOCC4)c3)CC2)cs1
(III) O=C(N[C@H]1CC[C@@H](NC(=O)c2cc(F)cnc2Oc2cccc(-c3ccc(CCCN4CCCNCC4)cc3)c2)CC1)c1cc2n(n1)CCCC2
(IV) Cc1cccc2nc(C(=O)N[C@H]3CC[C@@H](NC(=O)c4cc(F)cnc4Oc4cccc(-c5cccc(CN6CCNCC6)c5)c4)CC3)cn12
(V) Cc1nc(C(=O)N[C@H]2CC[C@@H](NC(=O)c3cc(F)cnc3Oc3cccc(-c4ccc(CCCN5CCCNCC5)cc4)c3)CC2)cs1
[Q] # ascending order, key=IC50 List each label, following the requested order.
[A] II, I, V, III, IV
(II: 0.02 nM, I: 0.0316 nM, V: 0.0501 nM, III: 0.0794 nM, IV: 0.158 nM)

(1) Cc1nc(C(=O)N[C@H]2CC[C@@H](NC(=O)c3cc(F)cnc3Oc3cccc(-c4ccc(CCN5CCNCC5)cc4)c3)CC2)cs1
(2) Cc1cc(C(=O)N[C@H]2CC[C@@H](NC(=O)c3cc(F)cnc3Oc3cccc(-c4ccc(CCN5CCN(C(C)C)CC5)cc4)c3)CC2)nn1C
(3) C[C@@H]1CN(Cc2ccc(-c3cccc(Oc4ncc(F)cc4C(=O)N[C@H]4CC[C@@H](NC(=O)c5cn6cc(F)ccc6n5)CC4)c3)cc2)C[C@H](C)N1
(4) Cc1cc(CN[C@H]2CC[C@@H](NC(=O)c3cc(F)cnc3Oc3cccc(-c4ccc(O)cc4CN4CCOCC4)c3)CC2)nn1C
(5) CCCN1CCN(Cc2ccc(-c3cccc(Oc4ncc(F)cc4C(=O)N[C@H]4CC[C@@H](NC(=O)c5cc(C)n(C)n5)CC4)c3)c(CN3CCOCC3)c2)CC1
[Q] Arrange the 5 compounds from largest to smallest IC50. List each label, following the requested order.
[A] 4, 5, 3, 1, 2

(1) O=C(N[C@H]1CC[C@@H](NC(=O)c2cc(F)cnc2Oc2cccc(-c3ccc(CCN4CCNCC4)cc3)c2)CC1)c1cn2cc(F)ccc2n1
(2) Cc1cc(C)n2ncc(C(=O)N[C@H]3CC[C@@H](NC(=O)c4cc(F)cnc4Oc4cccc(-c5ccc(CN6CCN(CC(=O)NC(C)C)CC6)cc5CN5CCOCC5)c4)CC3)c2n1
[Q] Among 1 and 2 , which shows a numerically higher IC50 result? In your reply, give the label of the chosen option.
[A] 1
(1: 0.1 nM, 2: 0.0398 nM)
